target: GABA-A receptor; anion channel (Rattus norvegicus) (UniProt O09028+P15431+P18506+P18508+P19969+P20236+P23574+P23576+P28471+P28473+P30191+P62813+P63079+P63138+Q91ZM7+Q9ES14); test: Percent response with 1 uM GABA relative to current produced by 1 uM GABA alone in rat hippocampal cells; type: functional, cell-based; conditions: Hippocampus
property.measured: Response (%)
Lab book: enter the figure in %, no units written.

Exam item: Any idea what its Response is? The compound is CC(=O)[C@@]1(C)CCC2C(CC[C@H]3C[C@H](O)CC[C@]23C)C1 (stereo partly specified)
Marked response: 108

Exam item: Moving on to CC(=O)C[C@@]1(C)CCC2C(CC[C@H]3C[C@H](O)CC[C@]23C)C1 (stereo partly specified)
Marked response: 113

Exam item: Please answer likewise for CC(=O)C1CC[C@H]2[C@@H]3CC[C@H]4C[C@H](O)CC[C@]4(C)[C@H]3CC[C@]12C (stereo partly specified)
Marked response: 195

Exam item: Input C[C@]1(CC#N)CCC2C(CC[C@H]3C[C@H](O)CC[C@]23C)C1 (stereo partly specified)
Marked response: 106

Exam item: Would you kindly repeat that for C[C@]12CCC3C[C@H](CCO)CCC3C1CCC2=O (stereo partly specified) ?
Marked response: 127

Exam item: Input CC(=O)[C@H]1CCC2C3CC[C@@H](CCO)CC3CC[C@@]21C (stereo partly specified)
Marked response: 489
